Biological target: T1, mouse programmed cell death protein 1 Fc fusion protein (mPD-1-Fc), mPD-1 C60S (aa 25-167) (Mus musculus, UniProt Q02242, stabilised)
T1 construct: not cleaved; source: Expi293F, purified (Protein A, SEC; dimeric fraction); not shown: Fc (human), C-terminal, kept
Experiment: SPR; Carterra LSA; Fab from the ammonium sulfate precipitate of the culture supernatant immobilised on a NiHC200M chip; hPD-1 (1-1024 nM) or mPD-1-Fc (4-1024 nM) as analyte, fourfold dilution series, no regeneration; HBS-EP pH 7.4, 25 °C; medians over the spots of a construct, KD = koff/kon
Details: one partner purified
measurement.kind: kon (M⁻¹ s⁻¹)
Output spec: scalar in M⁻¹ s⁻¹, unitless text.

// solved cases for kon follow
# binder, kon (M⁻¹ s⁻¹)
measured = [
    ("toripalimab Fab L.V99K (Fab, V domains shown, as the heavy chain of Sm3; light chain of Sm3 with this change; numbers count from the chain's first residue; source: Brevibacillus, culture supernatant (ammonium sulfate precipitate); not shown: 6xHis, C-terminal, kept; 6xHN, C-terminal, kept) VH: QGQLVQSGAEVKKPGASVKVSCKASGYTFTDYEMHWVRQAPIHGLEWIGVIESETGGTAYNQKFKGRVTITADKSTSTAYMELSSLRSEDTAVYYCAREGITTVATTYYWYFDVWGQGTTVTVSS VL: DVVMTQSPLSLPVTLGQPASISCRSSQSIVHSNGNTYLEWYLQKPGQSPQLLIYKVSNRFSGVPDRFSGSGSGTDFTLKISRVEAEDVGVYYCFQGSHKPLTFGQGTKLEIK", 15400),
    ("toripalimab Fab L.F60Y (Fab, V domains shown, as the heavy chain of Sm3; light chain of Sm3 with this change; numbers count from the chain's first residue; source: Brevibacillus, culture supernatant (ammonium sulfate precipitate); not shown: 6xHis, C-terminal, kept; 6xHN, C-terminal, kept) VH: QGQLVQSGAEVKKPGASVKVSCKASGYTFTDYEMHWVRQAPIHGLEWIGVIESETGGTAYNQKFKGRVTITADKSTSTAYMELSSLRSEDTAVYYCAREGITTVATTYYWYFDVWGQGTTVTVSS VL: DVVMTQSPLSLPVTLGQPASISCRSSQSIVHSNGNTYLEWYLQKPGQSPQLLIYKVSNRYSGVPDRFSGSGSGTDFTLKISRVEAEDVGVYYCFQGSHVPLTFGQGTKLEIK", 34800),
    ("toripalimab Fab L.L101S (Fab, V domains shown, as the heavy chain of Sm3; light chain of Sm3 with this change; numbers count from the chain's first residue; source: Brevibacillus, culture supernatant (ammonium sulfate precipitate); not shown: 6xHis, C-terminal, kept; 6xHN, C-terminal, kept) VH: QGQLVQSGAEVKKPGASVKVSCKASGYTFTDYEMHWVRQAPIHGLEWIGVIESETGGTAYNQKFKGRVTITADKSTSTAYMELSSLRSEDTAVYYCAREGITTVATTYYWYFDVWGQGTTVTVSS VL: DVVMTQSPLSLPVTLGQPASISCRSSQSIVHSNGNTYLEWYLQKPGQSPQLLIYKVSNRFSGVPDRFSGSGSGTDFTLKISRVEAEDVGVYYCFQGSHVPSTFGQGTKLEIK", 13700),
]

query: For the binder toripalimab Fab L.S32Y (Fab, V domains shown, as the heavy chain of Sm3; light chain of Sm3 with this change; numbers count from the chain's first residue; source: Brevibacillus, culture supernatant (ammonium sulfate precipitate); not shown: 6xHis, C-terminal, kept; 6xHN, C-terminal, kept) VH: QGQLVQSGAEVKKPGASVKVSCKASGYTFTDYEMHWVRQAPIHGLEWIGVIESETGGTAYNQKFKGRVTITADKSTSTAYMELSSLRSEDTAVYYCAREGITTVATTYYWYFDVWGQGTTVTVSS VL: DVVMTQSPLSLPVTLGQPASISCRSSQSIVHYNGNTYLEWYLQKPGQSPQLLIYKVSNRFSGVPDRFSGSGSGTDFTLKISRVEAEDVGVYYCFQGSHVPLTFGQGTKLEIK , give its reported kon.
result: 36100

Data origin: paper PMC10663500
